Test system: OVCAR-4
TEST_SUMMARY: NCI tumour cell line growth inhibition, 48 h
Calls of active or inactive are those of the source. No stated cut-off is given here; in the data, active = GI50 up to about 1.1 µM and inactive = higher.
EXPERIMENTAL_ENDPOINT: GI50

Asked: Kindly state the measured GI50 obtained for C[C@H](CCC(=O)NN)[C@H]1CC[C@H]2[C@@H]3CC[C@@H]4C[C@H](O)CC[C@]4(C)[C@H]3CC[C@]12C with OVCAR-4.
Given back: > 67.1 µM (inactive)

Asked: Kindly state the measured GI50 obtained for O=C(c1cccc(C(=O)c2ccc3c4c(cccc24)C(=O)N(c2ccccc2)C3=O)c1)c1ccc2c3c(cccc13)C(=O)N(c1ccccc1)C2=O with OVCAR-4.
Given back: > 100 µM (inactive)

Asked: Kindly state the measured GI50 obtained for O=[N+]([O-])c1ccc(Oc2c(Cl)cc(S(=O)(=O)N/C(=N\O)Nc3ccc(Cl)cc3)cc2Cl)cc1 with OVCAR-4.
Given back: 3.94 µM (inactive)

Asked: Kindly state the measured GI50 obtained for CC(C)(C)C(=O)CC1(O)C=C(O)C(O)(CC(=O)C(C)(C)C)O1 (configuration not stated) with OVCAR-4.
Given back: 12.8 µM (inactive)

Asked: Kindly state the measured GI50 obtained for CC(=O)O[C@H]1CC[C@@]2(C)C(=CC[C@@H]3[C@@H]2CC[C@]2(C)c4c(C)nn(-c5ccccc5)c4C[C@@H]32)C1 with OVCAR-4.
Given back: 72.6 µM (inactive)

Asked: Kindly state the measured GI50 obtained for CCOC(=O)[C@H](Cc1ccc(O)cc1)/N=C1/[C@H]2CCC[C@]1(O)[C@@](C)([N+](=O)[O-])C2 with OVCAR-4.
Given back: > 100 µM (inactive)

Asked: Kindly state the measured GI50 obtained for COc1cc(/C=C/C(=N\NC(=S)NN)c2sc(NNC(C)=O)nc2C)ccc1O with OVCAR-4.
Given back: > 100 µM (inactive)
